target: LsrK (Salmonella typhimurium, UniProt Q8ZKQ6); assay: biochemical; assay type: biochemical, S. typhimurium
Sequence (Q8ZKQ6 whole entry): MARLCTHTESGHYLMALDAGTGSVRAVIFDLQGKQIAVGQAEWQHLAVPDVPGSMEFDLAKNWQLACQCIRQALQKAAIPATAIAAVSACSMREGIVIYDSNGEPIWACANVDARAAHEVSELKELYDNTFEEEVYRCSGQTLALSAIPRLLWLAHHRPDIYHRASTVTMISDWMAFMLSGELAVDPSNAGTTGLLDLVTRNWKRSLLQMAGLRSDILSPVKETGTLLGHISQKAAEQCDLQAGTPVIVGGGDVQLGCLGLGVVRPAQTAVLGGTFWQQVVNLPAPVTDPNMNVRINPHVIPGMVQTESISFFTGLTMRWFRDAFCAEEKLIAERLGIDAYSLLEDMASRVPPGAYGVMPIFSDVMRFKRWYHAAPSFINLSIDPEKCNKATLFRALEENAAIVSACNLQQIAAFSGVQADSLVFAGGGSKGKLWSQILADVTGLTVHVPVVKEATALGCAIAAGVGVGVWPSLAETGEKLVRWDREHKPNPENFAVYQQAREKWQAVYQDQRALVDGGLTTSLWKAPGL
Where a name gives a salt, the structure may show the parent alone.
Reported Endpoint: inhibition at 50 µM (%)
Expressed in %, but write only the number.

Task item: Which inhibition at 50 µM value is on record for O=C1OC(CN2CCOCC2)CN1/N=C/c1ccc([N+](=O)[O-])o1 (centres unmarked) ?
Reply: 2

Task item: Which inhibition at 50 µM value is on record for C[C@H]1COC2=C1C(=O)C(=O)c1c2ccc2c1CCCC2(C)C ?
Reply: 16

Task item: Which inhibition at 50 µM value is on record for CCN(CCCCOC(=O)c1ccc(OC)c(OC)c1)C(C)Cc1ccc(OC)cc1 (centres unmarked) [MEBEVERINE HYDROCHLORIDE] ?
Reply: 1

Task item: Which inhibition at 50 µM value is on record for CC[C@@]1(O)C(=O)OCc2c1cc1n(c2=O)Cc2cc3cc(O)ccc3nc2-1 [10-HYDROXYCAMPTOTHECIN] ?
Reply: 1

Task item: Which inhibition at 50 µM value is on record for CN1CCCCC1c1ccc(-c2cccnc2)nc1 (centres unmarked) [ANABASAMINE HYDROCHLORIDE] ?
Reply: 2

Task item: Which inhibition at 50 µM value is on record for COc1ccc(C[C@H](N)C(=O)N[C@H]2[C@@H](O)[C@H](n3cnc4c(N(C)C)ncnc43)O[C@@H]2CO)cc1 [PUROMYCIN HYDROCHLORIDE] ?
Reply: 0

Task item: Which inhibition at 50 µM value is on record for Cc1c(O)c(O)cc2c1CC=C1[C@@]2(C)CC[C@@]2(C)[C@@H]3C[C@](C)(C(=O)O)CC[C@]3(C)CC[C@]12C [DIHYDROCELASTROL] ?
Reply: 105

Task item: Which inhibition at 50 µM value is on record for O=c1oc2ccccc2c(O)c1Cc1c(O)c2ccccc2oc1=O ?
Reply: 4

###

molecular target: LsrK (Salmonella typhimurium, UniProt Q8ZKQ6); assay: biochemical; assay type: biochemical, S. typhimurium; conditions: read-out: IC50 against LsrK
Reported Endpoint: pIC50
pIC50 field: float, defined as -log10 of concentration (mol/L).

Task item: Which pIC50 value is on record for CCOc1nc2cccc(C(=O)OC(C)OC(=O)OC3CCCCC3)c2n1Cc1ccc(-c2ccccc2-c2nn[nH]n2)cc1 (centres unmarked) [CANDESARTAN CILEXTIL, reference compound] ?
Reply: 4.85

###

target: LsrK (Salmonella typhimurium); experiment: biochemical; assay type: biochemical, S. typhimurium
Structures can show the parent of a compound that is named as a salt.
inhibition at 50 µM below 1% gives no (0); inhibition at 50 µM at or above it gives yes (1).

Task item: Has CCOC(=O)[C@H](CCc1ccccc1)N[C@@H](C)C(=O)N1[C@H](C(=O)O)C[C@@H]2CCC[C@@H]21 a recorded inhibition at 50 µM greater than or equal to 1%?
Reply: yes (1)

Task item: Has C/C=C(/C(=C/C)c1ccc(O)cc1)c1ccc(O)cc1 a recorded inhibition at 50 µM greater than or equal to 1%?
Reply: yes (1)

Task item: Has O=C(O)CC[N+](=O)[O-] a recorded inhibition at 50 µM greater than or equal to 1%?
Reply: yes (1)

Task item: Has O=[N+]([O-])O[C@@H]1CO[C@H]2[C@@H]1OC[C@@H]2O [ISOSORBIDE MONONITRATE] a recorded inhibition at 50 µM greater than or equal to 1%?
Reply: no (0)

Task item: Has CCCC(=O)Nc1ccc(OCC(O)CNC(C)C)c(C(C)=O)c1 (stereo not shown) [ACEBUTOLOL HYDROCHLORIDE] a recorded inhibition at 50 µM greater than or equal to 1%?
Reply: no (0)

Task item: Has C[N+]1(C)CCCC(OC(=O)C(O)(c2ccccc2)c2ccccc2)C1 (stereo not shown) [MEPENZOLATE BROMIDE] a recorded inhibition at 50 µM greater than or equal to 1%?
Reply: yes (1)

Task item: Has COC(=O)C(N)CS (stereo not shown) [MECYSTEINE HYDROCHLORIDE] a recorded inhibition at 50 µM greater than or equal to 1%?
Reply: yes (1)

Task item: Has O=C1C=C2CC3(O)COc4c(ccc(O)c4O)C3=C2C=C1O (stereo not shown) a recorded inhibition at 50 µM greater than or equal to 1%?
Reply: yes (1)

Task item: Has CC[n+]1c(-c2ccccc2)c2cc(N)ccc2c2ccc(N)cc21 [HOMIDIUM BROMIDE] a recorded inhibition at 50 µM greater than or equal to 1%?
Reply: yes (1)

Task item: Has CCCCC(CC)CCC(CC(C)C)OS(=O)(=O)O (stereo not shown) [SODIUM TETRADECYL SULFATE] a recorded inhibition at 50 µM greater than or equal to 1%?
Reply: yes (1)

Task item: Has O=C1c2c(O)cccc2C([C@@H]2O[C@H](CO)[C@@H](O)[C@H](O)[C@H]2O)c2cc(CO)cc(O)c21 (stereo partly shown) a recorded inhibition at 50 µM greater than or equal to 1%?
Reply: yes (1)

Task item: Has COC(=O)N/N=C/c1c[n+]([O-])c2ccccc2[n+]1[O-] a recorded inhibition at 50 µM greater than or equal to 1%?
Reply: yes (1)

Task item: Has CC(=O)O[C@]1(C(C)=O)CC[C@H]2[C@@H]3C=C(Cl)C4=CC(=O)[C@@H]5C[C@@H]5[C@]4(C)[C@H]3CC[C@@]21C [CYPROTERONE ACETATE] a recorded inhibition at 50 µM greater than or equal to 1%?
Reply: no (0)

Task item: Has COC(=O)/C=C/C(C)=C\C=C\C(C)=C\C=C\C=C(C)\C=C\C=C(C)\C=C\C(=O)O a recorded inhibition at 50 µM greater than or equal to 1%?
Reply: yes (1)

Task item: Has CCC(=O)O[C@H]1[C@H](O[C@@H]2[C@@H](C)[C@H](O[C@H]3C[C@@](C)(OC)[C@@H](O)[C@H](C)O3)[C@@H](C)C(=O)O[C@H](CC)[C@@](C)(O)[C@H](O)[C@@H](C)C(=O)[C@H](C)C[C@@]2(C)O)O[C@H](C)C[C@@H]1N(C)C [ERYTHROMYCIN ESTOLATE] a recorded inhibition at 50 µM greater than or equal to 1%?
Reply: yes (1)

Task item: Has CCCCC(CC)CNC(=N)NC(=N)NCCCCCCNC(=N)NC(=N)NCC(CC)CCCC (stereo not shown) [ALEXIDINE HYDROCHLORIDE] a recorded inhibition at 50 µM greater than or equal to 1%?
Reply: yes (1)

Task item: Has CCc1ccc(CCOc2ccc(CC3SC(=O)NC3=O)cc2)nc1 (stereo not shown) [PIOGLITAZONE HYDROCHLORIDE] a recorded inhibition at 50 µM greater than or equal to 1%?
Reply: no (0)

Task item: Has O=C1OC(c2ccc(O)cc2)(c2ccc(O)cc2)c2ccccc21 a recorded inhibition at 50 µM greater than or equal to 1%?
Reply: no (0)

Task item: Has O=c1[nH]c(=O)n([C@H]2C[C@H](O)[C@@H](CO)O2)cc1F a recorded inhibition at 50 µM greater than or equal to 1%?
Reply: no (0)
